Multiple publications report pKi for Alpha-2A adrenergic receptor (Homo sapiens); what follows is a combined list.
Just the number, please; pKi means minus log10 of the concentration in mol/L.

Task item: Which measured pKi value corresponds to CO/C(O)=C1\C(C)=NC(C)=C(C(=O)NCCCN2CCC(c3ccccc3)CC2)C1c1ccc([N+](=O)[O-])cc1 (stereo unspecified) ?
Reply: 6.56

Task item: Data request, read-out pKi, for CC(Oc1ccccc1-c1cccs1)C1=NCCN1 (stereo unspecified)
Reply: 7.77

Task item: I'd like to know its pKi. The compound in question is CC1=C(C(=O)NCCCN2CCC(C#N)(c3ccc(F)cc3F)CC2)[C@@H](c2ccc(F)c(F)c2)CC(=O)N1
Reply: 5.71

Task item: Recorded pKi of c1ccc([C@@H]2Cc3nccn3C2)c(-c2nccs2)c1 , please.
Reply: 5.76
